Values from patent US10954221B2

Would you kindly list EC50 for each of these molecules?
molecular target: UniProt P43220; assay: GLP1R cAMP assay (HTRF), HEK293/GLP-1R/CRE/Luc, Clone 4

In the examples that follow, each entry is paired with its recorded EC50.
N#Cc1ccc(COc2ncc(F)c(-c3ccc(Cc4nc5ccc(C(=O)O)nc5n4C[C@@H]4CCO4)c(F)c3)n2)c(F)c1 [Compound 291]    < 15 nM
N#Cc1ccc(COc2nc(-c3cc(F)c(Cc4nc5ccc(C(=O)O)nc5n4C[C@@H]4CCO4)cc3F)ncc2F)nc1 [Compound 280]    < 15 nM
O=C(O)c1ccc2nc(Cc3cc(F)c(-c4cccc(OCc5ccc(-n6ccnc6)cc5)n4)cc3F)n(C[C@@H]3CCO3)c2n1 [Compound 303]    < 15 nM
N#Cc1ccc(COc2ccc(F)c(-c3ccc(Cc4nc5ccc(C(=O)O)cc5n4C[C@@H]4CCO4)c(F)c3)n2)c(F)c1 [Compound 268]    < 15 nM
O=C(O)c1ccc2nc(Cc3ccc(-c4nc(OCc5ccc(Cl)cc5F)ccc4F)cc3F)n(C[C@@H]3CCO3)c2c1 [Compound 92]    < 15 nM
O=C(O)c1ccc2nc(Cc3ccc(-c4ccnc(OCc5ccc(Cl)cc5F)n4)c(F)c3)n(C[C@@H]3CCO3)c2c1 [Compound 80]    < 15 nM
N#Cc1cnc(COc2nc(-c3ccc(Cc4nc5ccc(C(=O)O)nc5n4C[C@@H]4CCO4)cc3F)ncc2F)c(F)c1 [Compound 302]    15 to 150 nM
N#Cc1ccc(COc2nc(-c3cc(F)c(Cc4nc5ccc(C(=O)O)cc5n4C[C@@H]4CCO4)cc3F)ncc2F)nc1 [Compound 275]    < 15 nM

For each of the molecules below, note its EC50.
1. O=C(O)c1ccc2nc(Cc3cc(F)c(-c4cccc(OCc5ncc(F)cc5F)n4)cc3F)n(C[C@@H]3CCO3)c2n1 [Compound 297]
2. O=C(O)c1ccc2nc(Cc3cc(F)c(-c4cccc(OCc5ccc(Cl)cc5F)n4)cc3F)n(C[C@@H]3CCO3)c2c1 [Compound 257]
3. O=C(O)c1ccc2nc(Cc3ccc(-c4ccc(F)c(OCc5ccc(Cl)cc5F)c4)cc3F)n(C[C@@H]3CCO3)c2c1 [Compound 85]
4. O=C(O)c1ccc2nc(C=C3CCN(c4cccc(OCc5ccc(F)cc5F)n4)CC3)n(C[C@@H]3CCO3)c2n1 [Compound 315]

Result block:
1: < 15 nM; 2: < 15 nM; 3: < 15 nM; 4: 150 to 1000 nM

Query block: # EC50 lookup, item O=C(O)c1ccc2nc(Cc3ccc(-c4nccc(OCc5ccc(Cl)cc5F)n4)c(F)c3)n(C[C@@H]3CCO3)c2c1 [Compound 259]
Result block: < 15 nM

----------
biological target: GLP1R (Homo sapiens); experiment: cAMP assay in CHO cells stably expressing hGLP-1R; assay type: cell-based; parameters: expressed in transfected cells; host or cells: CHO cells stably transfected; conditions: CHO cells stably expressing hGLP-1R (Table 2), read-out: CHO cAMP stable EC50
Sequence (P43220 24-463): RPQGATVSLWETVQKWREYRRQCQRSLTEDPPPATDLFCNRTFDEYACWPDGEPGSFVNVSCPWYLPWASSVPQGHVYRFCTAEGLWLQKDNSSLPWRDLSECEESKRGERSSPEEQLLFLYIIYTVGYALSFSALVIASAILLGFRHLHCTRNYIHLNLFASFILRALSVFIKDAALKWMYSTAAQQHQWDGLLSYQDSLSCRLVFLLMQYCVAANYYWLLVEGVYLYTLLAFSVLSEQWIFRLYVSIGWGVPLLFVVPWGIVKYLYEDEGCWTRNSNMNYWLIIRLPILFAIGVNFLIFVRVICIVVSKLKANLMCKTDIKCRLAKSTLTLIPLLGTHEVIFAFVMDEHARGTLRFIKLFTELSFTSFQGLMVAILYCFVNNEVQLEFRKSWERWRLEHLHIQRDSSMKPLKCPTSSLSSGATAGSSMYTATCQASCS
property: EC50

Some solved entries appear below for comparison.
N#Cc1cnc(COc2cccc(-c3cc(F)c(Cc4nc5ccc(C(=O)O)nc5n4C[C@@H]4CCO4)cc3F)n2)c(F)c1    < 0.015 µM
N#Cc1ccc(COc2cccc(-c3cc(F)c(Cc4nc5ccc(C(=O)O)nc5n4C[C@@H]4CCO4)cc3F)n2)c(F)c1    < 0.015 µM
O=C(O)c1ccc2nc(Cc3cc(F)c(-c4ncc(F)c(OCc5ncc(Cl)cc5F)n4)cc3F)n(C[C@@H]3CCO3)c2c1    0.015 to 0.15 µM
N#Cc1ccc(COc2cccc(-c3ccn(Cc4nc5ccc(C(=O)O)c(F)c5n4C[C@@H]4CCO4)c(=O)c3)n2)c(F)c1    0.015 to 0.15 µM
N#Cc1ccc(COc2cccc(-c3ccc(Cc4nc5ccc(C(=O)O)nc5n4C[C@@H]4CCO4)c(F)c3)n2)nc1    0.015 to 0.15 µM

// each listed compound needs a value for EC50
1. O=C(O)c1ccc2nc(Cc3ccc(-c4nccc(OCc5ccc(Cl)cc5F)n4)cc3F)n(C[C@@H]3CCO3)c2c1F
2. O=C(O)c1ccc2nc(Cc3cc(F)c(-c4cccc(OCc5ncc(Cl)cc5F)n4)cc3F)n(C[C@@H]3CCO3)c2n1
3. N#Cc1ccc(COc2nc(-c3cc(F)c(Cc4nc5ccc(C(=O)O)nc5n4C[C@@H]4CCO4)cc3F)ncc2F)nc1
4. N#Cc1ccc(COc2cccc(-c3ccc(Cc4nc5ccc(C(=O)O)c(F)c5n4C[C@@H]4CCO4)c(F)c3)n2)c(F)c1
5. O=C(O)c1ccc2nc(Cc3cc(F)c(-c4cccc(OCc5ccc(-n6ccnc6)cc5)n4)cc3F)n(C[C@@H]3CCO3)c2n1

Result block:
1: < 0.015 µM; 2: < 0.015 µM; 3: 0.015 to 0.15 µM; 4: < 0.015 µM; 5: < 0.015 µM
